# TGT: fungal (fACC2)
# DETAILS: read-out: fACC2 (in vitro ACC2 Inhibition Assay, IC50); Table 2b, additional results; ADP-Glo, 5 nM ACC2, 20 μM ATP, 20 μM acetyl-CoA
I'd be grateful if you could share measured IC50 for these entries.

// IC50 lookup, key: `COc1ccccc1[C@@H](O)Cn1c(=O)n([C@@H](C)C(=O)N(C)C(C)C)c(=O)c2c(C)c(-n3nccn3)sc21`
1 to 5 nM

Returns the measured IC50 for the input compound. Input: `CCc1ccc(F)cc1[C@H](Cn1c(=O)n(C(C)(C)C(=O)NC(C)C)c(=O)c2c(C)c(-n3nccn3)sc21)OCCO`
0.3 to 1 nM

I have this compound here, `Cc1c(-n2nccn2)sc2c1c(=O)n(C(C)(C)C(=O)NC(C)C)c(=O)n2C[C@H](OC1CCOCC1)c1cc(F)ccc1OCC#N` , and I need its recorded IC50.
0.3 to 1 nM

// lookup IC50 for `COc1ccc(F)cc1[C@H](Cn1c(=O)n([C@H](C)C(=O)NC(C)C)c(=O)c2c(C)c(-n3nccn3)sc21)OCCO`
1 to 5 nM

Fill in the blank: the reported IC50 of `COc1ccccc1[C@H](Cn1c(=O)n([C@@H](C)C(=O)N(C)C(C)C)c(=O)c2c(C)c(-n3nccn3)sc21)OCCO` is ____.
0.3 to 1 nM

// returns reported IC50 for input `COc1ccc(F)cc1[C@H](Cn1c(=O)n(C(C)(C)C(=O)N2CCCC2)c(=O)c2c(C)c(-n3nccn3)sc21)OCC(C)=O`
1 to 5 nM

====

# Tested on: C. krusei
# ASSAY INFO: Antifungal Activity Assay (broth microtiter MIC), C. krusei
# Type: cell-based, Candida krusei
# DETAILS: Pichia kudriavzevii, ATCC6258, 48 h, Table 3b (additional results); ATCC 6258; 3 replicates; MIC recorded at 48 h; read-out: MIC, C. krusei ATCC 6258
Record form. Attribute: MIC. Fill in for each entry.

# lookup: MIC of COc1ccc(F)cc1[C@H](Cn1c(=O)n(C(C)(C)C(=O)O)c(=O)c2c(C)c(-n3nccn3)sc21)OC1CCC(=O)CC1 [Compound I-30]
1.01 to 2 µg/mL

Given CCNC(=O)C(C)(C)n1c(=O)c2c(C)c(-n3nccn3)sc2n(C[C@H](OC(C)=O)c2cc(F)ccc2OC)c1=O [Compound I-257] , state its recorded MIC.
1.01 to 2 µg/mL

Reported MIC for COc1ccc(F)cc1[C@H](Cn1c(=O)n(C(C)(C)C(=O)NC2CCC2)c(=O)c2c(C)c(-n3nccn3)sc21)OC1CCOCC1 [Compound I-27] : what is it?
0.06 to 0.249 µg/mL

Query: MIC; subject: COc1ccc(F)cc1[C@H](Cn1c(=O)n(C(C)(C)C(=O)O)c(=O)c2c(C)c(-n3nccn3)sc21)OCC(C)C [Compound I-94]
2.01 to 4 µg/mL

Requested field: MIC. Item: COc1ccc(F)cc1[C@H](Cn1c(=O)n(C(C)(C)C(=O)N2CCCC2)c(=O)c2c(C)c(-n3nccn3)sc21)OCC(C)=O [Compound I-98]
2.01 to 4 µg/mL

Entry COc1ccc(F)cc1[C@H](Cn1c(=O)n(C(C)(C)C(=O)N2CC=CC2)c(=O)c2c(C)c(-n3nccn3)sc21)OC[C@@H](C)O [Compound I-63] has what MIC?
> 4.01 µg/mL

Fill in the blank: the reported MIC of CC(=O)Oc1ccccc1[C@H](Cn1c(=O)n(C(C)(C)C(=O)NC(C)C)c(=O)c2c(C)c(-n3nccn3)sc21)OCCC#N [Compound I-272] is ____.
1.01 to 2 µg/mL

Please give the measured MIC for this compound: CCNC(=O)C(C)(C)n1c(=O)c2c(C)c(-n3nccn3)sc2n(C[C@H](OCCC#N)c2cc(F)ccc2OC)c1=O [Compound I-140]
2.01 to 4 µg/mL

Fill in the blank: the reported MIC of COCCO[C@@H](Cn1c(=O)n([C@@H](C)C(=O)NC(C)C)c(=O)c2c(C)c(-n3nccn3)sc21)c1cc(F)ccc1OC [Compound I-83] is ____.
2.01 to 4 µg/mL

MIC for COc1ccc(F)cc1[C@H](Cn1c(=O)n(C(C)(C)C(=O)NC(C)C)c(=O)c2c(C)c(-n3nccn3)sc21)OC[C@H](C)C#N [Compound I-151] ?
0.25 to 1 µg/mL

Give its MIC value. Item: Cc1c(-n2nccn2)sc2c1c(=O)n(C(C)(C)C(=O)NC(C)C)c(=O)n2CCc1cc(F)ccc1CCCC#N [Compound I-278]
1.01 to 2 µg/mL

Quick one: MIC for COc1ccc(F)cc1[C@H](Cn1c(=O)n(C(C)(C)C(=O)NCC(C)C)c(=O)c2c(C)c(-n3nccn3)sc21)OC1CCOCC1 [Compound I-29] ?
0.06 to 0.249 µg/mL

State the recorded MIC for this entry: COc1ccccc1[C@H](Cn1c(=O)n(C(C)(C)C(=O)N2CC=CC2)c(=O)c2c(C)c(-n3nccn3)sc21)OC1CCOCC1 [Compound I-101]
1.01 to 2 µg/mL

====

# TGT: human (hACC2) (Homo sapiens, UniProt O00763)
# Sequence (O00763 whole entry): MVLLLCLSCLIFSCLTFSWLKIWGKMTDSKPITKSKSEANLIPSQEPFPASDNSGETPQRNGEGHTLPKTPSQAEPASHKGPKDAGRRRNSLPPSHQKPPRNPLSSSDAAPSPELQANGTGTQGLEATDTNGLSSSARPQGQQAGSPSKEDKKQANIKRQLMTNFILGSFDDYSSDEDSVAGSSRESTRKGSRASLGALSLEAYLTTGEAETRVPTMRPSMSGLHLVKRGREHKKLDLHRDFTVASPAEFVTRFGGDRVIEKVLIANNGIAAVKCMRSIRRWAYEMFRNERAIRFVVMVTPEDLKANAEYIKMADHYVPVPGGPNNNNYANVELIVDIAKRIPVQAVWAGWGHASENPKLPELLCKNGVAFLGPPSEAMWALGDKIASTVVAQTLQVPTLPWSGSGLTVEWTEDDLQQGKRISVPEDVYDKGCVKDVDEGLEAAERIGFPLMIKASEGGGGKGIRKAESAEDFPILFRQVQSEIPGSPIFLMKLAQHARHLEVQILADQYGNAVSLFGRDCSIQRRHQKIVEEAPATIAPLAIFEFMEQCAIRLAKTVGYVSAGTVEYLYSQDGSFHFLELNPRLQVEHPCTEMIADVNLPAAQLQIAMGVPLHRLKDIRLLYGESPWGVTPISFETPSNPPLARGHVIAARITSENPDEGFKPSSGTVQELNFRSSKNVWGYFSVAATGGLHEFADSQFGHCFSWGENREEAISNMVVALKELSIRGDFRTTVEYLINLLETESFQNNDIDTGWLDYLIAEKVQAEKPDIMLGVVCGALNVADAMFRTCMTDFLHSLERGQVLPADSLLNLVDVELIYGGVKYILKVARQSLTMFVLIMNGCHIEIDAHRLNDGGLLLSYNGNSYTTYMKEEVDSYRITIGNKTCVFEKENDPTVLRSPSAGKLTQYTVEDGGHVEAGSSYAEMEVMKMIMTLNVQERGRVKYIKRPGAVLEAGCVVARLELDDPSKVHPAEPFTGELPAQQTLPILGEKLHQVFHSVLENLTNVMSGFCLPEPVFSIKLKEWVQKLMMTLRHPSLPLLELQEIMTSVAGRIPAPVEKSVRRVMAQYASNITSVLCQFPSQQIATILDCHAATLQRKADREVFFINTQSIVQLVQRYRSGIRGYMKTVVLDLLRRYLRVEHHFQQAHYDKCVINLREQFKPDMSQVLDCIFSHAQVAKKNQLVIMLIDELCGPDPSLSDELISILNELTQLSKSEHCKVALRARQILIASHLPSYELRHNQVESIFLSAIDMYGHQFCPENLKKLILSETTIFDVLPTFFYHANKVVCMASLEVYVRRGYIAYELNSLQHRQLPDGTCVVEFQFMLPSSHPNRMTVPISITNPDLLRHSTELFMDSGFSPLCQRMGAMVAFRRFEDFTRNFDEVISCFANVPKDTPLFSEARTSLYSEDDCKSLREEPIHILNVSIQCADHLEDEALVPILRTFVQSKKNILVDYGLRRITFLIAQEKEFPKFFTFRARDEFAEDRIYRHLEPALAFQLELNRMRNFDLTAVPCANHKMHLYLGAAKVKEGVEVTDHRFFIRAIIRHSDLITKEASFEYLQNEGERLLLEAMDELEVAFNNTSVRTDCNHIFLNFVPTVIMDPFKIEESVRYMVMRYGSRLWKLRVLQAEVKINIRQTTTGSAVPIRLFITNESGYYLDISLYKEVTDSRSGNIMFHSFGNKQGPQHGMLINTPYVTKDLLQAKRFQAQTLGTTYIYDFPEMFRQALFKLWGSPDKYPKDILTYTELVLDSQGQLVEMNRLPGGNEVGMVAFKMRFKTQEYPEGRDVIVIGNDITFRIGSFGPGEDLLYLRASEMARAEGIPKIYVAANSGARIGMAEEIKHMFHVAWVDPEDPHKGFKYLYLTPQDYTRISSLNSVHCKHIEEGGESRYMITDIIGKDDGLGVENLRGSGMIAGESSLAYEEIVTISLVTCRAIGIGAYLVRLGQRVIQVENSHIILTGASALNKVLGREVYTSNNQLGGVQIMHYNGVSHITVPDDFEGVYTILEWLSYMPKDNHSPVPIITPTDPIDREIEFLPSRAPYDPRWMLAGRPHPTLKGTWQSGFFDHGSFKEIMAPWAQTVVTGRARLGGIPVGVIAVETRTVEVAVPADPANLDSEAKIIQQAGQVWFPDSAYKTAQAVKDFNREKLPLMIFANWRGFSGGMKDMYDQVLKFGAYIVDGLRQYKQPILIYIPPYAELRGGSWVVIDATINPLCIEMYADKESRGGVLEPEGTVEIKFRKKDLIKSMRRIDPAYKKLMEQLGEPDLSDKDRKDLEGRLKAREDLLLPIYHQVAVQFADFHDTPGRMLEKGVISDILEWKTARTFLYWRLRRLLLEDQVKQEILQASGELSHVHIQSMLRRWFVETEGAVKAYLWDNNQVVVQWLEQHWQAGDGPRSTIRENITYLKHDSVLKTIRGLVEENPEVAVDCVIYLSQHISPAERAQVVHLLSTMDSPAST
# ASSAY INFO: In vitro ACC inhibition assay (ADP-Glo), hACC2
# Assay type: biochemical
# DETAILS: Table 2b, additional results, 5 nM ACC2, 20 μM ATP, 20 μM acetyl-CoA
ASSAY ENDPOINT: IC50

Please look up its IC50: `CCO[C@@H](Cn1c(=O)n(C(C)(C)C(=O)N2CCCC2)c(=O)c2c(C)c(-n3nccn3)sc21)c1cc(F)ccc1OC`
5 to 10 nM

Query: IC50; subject: `CNC(=O)C(C)(C)n1c(=O)c2c(C)c(-n3nccn3)sc2n(C[C@H](OCCC#N)c2cc(F)ccc2OC)c1=O`
5 to 10 nM

Would you mind telling me what IC50 value was observed for `Cc1c(-n2nccn2)sc2c1c(=O)n(C(C)(C)C(=O)N1CCCC1)c(=O)n2C[C@H](OC1CCOCC1)c1cc(F)ccc1OCC1COC1` ?
5 to 10 nM

====

Would you kindly list pIC50 for each of these compounds?
# TGT: UniProt Q00955
# Sequence (Q00955 whole entry): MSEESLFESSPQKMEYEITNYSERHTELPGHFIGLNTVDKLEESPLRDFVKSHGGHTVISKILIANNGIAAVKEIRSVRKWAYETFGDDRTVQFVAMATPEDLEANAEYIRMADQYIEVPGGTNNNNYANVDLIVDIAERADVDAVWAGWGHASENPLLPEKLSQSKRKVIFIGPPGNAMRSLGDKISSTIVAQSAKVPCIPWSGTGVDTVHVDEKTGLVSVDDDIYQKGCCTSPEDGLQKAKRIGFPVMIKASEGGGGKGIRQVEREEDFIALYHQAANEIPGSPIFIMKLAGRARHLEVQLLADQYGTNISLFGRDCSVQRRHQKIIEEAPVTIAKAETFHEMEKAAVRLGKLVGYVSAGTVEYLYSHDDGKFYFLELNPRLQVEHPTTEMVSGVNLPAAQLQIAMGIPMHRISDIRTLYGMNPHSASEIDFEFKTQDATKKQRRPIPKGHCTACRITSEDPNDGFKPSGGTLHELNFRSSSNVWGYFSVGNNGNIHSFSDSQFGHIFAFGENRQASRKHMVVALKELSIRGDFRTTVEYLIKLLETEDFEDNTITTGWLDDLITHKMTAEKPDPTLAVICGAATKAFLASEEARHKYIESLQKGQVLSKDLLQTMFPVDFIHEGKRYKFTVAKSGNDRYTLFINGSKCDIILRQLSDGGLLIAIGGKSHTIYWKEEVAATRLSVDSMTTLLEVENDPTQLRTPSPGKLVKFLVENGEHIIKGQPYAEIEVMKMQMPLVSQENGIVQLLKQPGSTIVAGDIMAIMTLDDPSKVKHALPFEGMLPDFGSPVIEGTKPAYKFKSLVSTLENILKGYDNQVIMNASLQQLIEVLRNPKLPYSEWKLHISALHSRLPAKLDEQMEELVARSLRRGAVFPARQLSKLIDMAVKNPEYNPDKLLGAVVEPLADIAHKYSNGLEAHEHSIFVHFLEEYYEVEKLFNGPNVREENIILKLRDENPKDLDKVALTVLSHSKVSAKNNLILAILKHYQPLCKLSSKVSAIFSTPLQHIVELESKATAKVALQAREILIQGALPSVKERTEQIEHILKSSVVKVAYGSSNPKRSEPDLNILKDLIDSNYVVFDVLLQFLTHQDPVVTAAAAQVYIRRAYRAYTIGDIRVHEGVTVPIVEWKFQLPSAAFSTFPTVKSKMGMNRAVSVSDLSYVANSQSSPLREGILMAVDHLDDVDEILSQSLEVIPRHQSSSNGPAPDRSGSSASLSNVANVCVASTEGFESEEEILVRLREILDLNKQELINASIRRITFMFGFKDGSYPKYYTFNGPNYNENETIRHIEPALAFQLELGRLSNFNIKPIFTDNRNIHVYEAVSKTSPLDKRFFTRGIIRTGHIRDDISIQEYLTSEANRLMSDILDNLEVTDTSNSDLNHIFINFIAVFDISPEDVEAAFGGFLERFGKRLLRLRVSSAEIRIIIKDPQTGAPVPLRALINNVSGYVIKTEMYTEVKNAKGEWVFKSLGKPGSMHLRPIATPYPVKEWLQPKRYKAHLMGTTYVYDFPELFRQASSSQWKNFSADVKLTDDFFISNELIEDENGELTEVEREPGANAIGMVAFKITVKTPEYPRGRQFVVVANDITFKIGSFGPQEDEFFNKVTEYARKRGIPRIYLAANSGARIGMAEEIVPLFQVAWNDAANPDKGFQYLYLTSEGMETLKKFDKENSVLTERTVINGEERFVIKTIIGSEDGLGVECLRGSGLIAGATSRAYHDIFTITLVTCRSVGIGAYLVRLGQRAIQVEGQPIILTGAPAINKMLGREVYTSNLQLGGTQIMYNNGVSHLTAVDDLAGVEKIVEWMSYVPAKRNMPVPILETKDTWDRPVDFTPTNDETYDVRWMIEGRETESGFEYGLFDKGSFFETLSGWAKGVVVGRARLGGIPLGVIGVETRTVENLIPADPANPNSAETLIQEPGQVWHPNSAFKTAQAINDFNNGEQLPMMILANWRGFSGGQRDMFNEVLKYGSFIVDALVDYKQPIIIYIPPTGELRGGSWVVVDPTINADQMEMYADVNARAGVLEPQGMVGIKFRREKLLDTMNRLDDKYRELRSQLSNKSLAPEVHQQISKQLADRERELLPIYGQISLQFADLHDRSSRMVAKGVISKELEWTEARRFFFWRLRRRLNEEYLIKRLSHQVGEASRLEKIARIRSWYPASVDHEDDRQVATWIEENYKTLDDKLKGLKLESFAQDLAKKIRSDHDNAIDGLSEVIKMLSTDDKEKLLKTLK
# DETAILS: read-out: fACC2 (in vitro ACC2 Inhibition Assay, IC50); Table 2b, additional results; ADP-Glo, 5 nM ACC2, 20 μM ATP, 20 μM acetyl-CoA
pIC50: −log10 of the molar value.

What reported pIC50 corresponds to Cc1c(-n2nccn2)sc2c1c(=O)n(C(C)(C)C(=O)NC1CCC1)c(=O)n2C[C@H](OC(C)C)c1cc(F)ccc1OCC#N [Compound I-221] on UniProt Q00955?
9.00 to 9.52

Requested read-out pIC50, target or system UniProt Q00955, entry COCCO[C@@H](Cn1c(=O)n([C@@H](C)C(=O)NC(C)C)c(=O)c2c(C)c(-n3nccn3)sc21)c1cc(F)ccc1OC [Compound I-66]
8.30 to 9.00

# returns recorded pIC50 (system: UniProt Q00955) for Cc1c(-n2nccn2)sc2c1c(=O)n(C(C)(C)C(=O)NC(C)C)c(=O)n2CCc1cc(F)ccc1OC1CCOCC1 [Compound I-279]
9.00 to 9.52

# returns recorded pIC50 (system: UniProt Q00955) for COc1ccc(F)cc1[C@H](Cn1c(=O)n(C(C)(C)C(=O)NC(C)C)c(=O)c2c(C)c(-n3nccn3)sc21)OCCOC(=O)C(C)C [Compound I-250]
8.30 to 9.00

Field: pIC50 (UniProt Q00955). Entry: C=CCNC(=O)C(C)(C)n1c(=O)c2c(C)c(-n3nccn3)sc2n(C[C@H](OC2CCOCC2)c2cc(F)ccc2OC)c1=O [Compound I-70]
8.30 to 9.00

I'm curious: which pIC50 was measured for COc1ccccc1[C@H](O)Cn1c(=O)n(C(C)(C)C(=O)NC(C)C)c(=O)c2c(C)c(-n3nccn3)sc21 [Compound I-251] tested on UniProt Q00955?
8.30 to 9.00

====

I'd appreciate it if you could supply IC50 values for the items below.
# TGT: fungal (fACC2)
# DETAILS: read-out: fACC2 (in vitro ACC2 Inhibition Assay, IC50); Table 2b, additional results; ADP-Glo, 5 nM ACC2, 20 μM ATP, 20 μM acetyl-CoA

// map `COc1ccc(F)cc1[C@H](Cn1c(=O)n(CC(=O)N2CCCC2)c(=O)c2c(C)c(-n3nccn3)sc21)OCCO` to recorded IC50 (system: fungal (fACC2))
1 to 5 nM

What reported IC50 corresponds to COc1ccc(F)cc1[C@H](Cn1c(=O)n(C(C)(C)C(=O)N2CC=CC2)c(=O)c2c(C)c(-n3nccn3)sc21)OCC(C)O (stereo partly shown) on fungal (fACC2)?
1 to 5 nM

Fill in the recorded IC50 for this compound, with fungal (fACC2) as test system: `COc1ccc(F)cc1[C@H](Cn1c(=O)n([C@H](C)C(N)=O)c(=O)c2c(C)c(-n3nccn3)sc21)OCC(C)(C)C#N`
1 to 5 nM

For the record `COc1ccc(F)cc1[C@H](Cn1c(=O)n([C@H](C)C(=O)N(C)C(C)C)c(=O)c2c(C)c(-n3nccn3)sc21)O[C@H]1CC[C@@H](O)CC1` , what value of IC50 is listed for fungal (fACC2)?
0.3 to 1 nM

Query for fungal (fACC2): what IC50 does the record show for `COc1ccc(F)cc1[C@@](O)(CCO)Cn1c(=O)n(C(C)(C)C(=O)NC(C)C)c(=O)c2c(C)c(-n3nccn3)sc21` ?
1 to 5 nM

Param readout= IC50; system= fungal (fACC2); entry= `CCNC(=O)C(C)(C)n1c(=O)c2c(C)c(-n3nccn3)sc2n(C[C@H](OCCC#N)c2ccccc2OC)c1=O` ; returns value.
1 to 5 nM

Form field: IC50 recorded for `COc1ccc(F)cc1[C@H](Cn1c(=O)n(C(C)(C)C(=O)NC(C)C)c(=O)c2c(C)c(-n3nccn3)sc21)OCCC(=O)N(C)O` with fungal (fACC2) (enter value)
1 to 5 nM

Item `COc1ccc(F)cc1[C@H](Cn1c(=O)n(C(C)(C)C(=O)NCC#N)c(=O)c2c(C)c(-n3nccn3)sc21)OC(C)C` with fungal (fACC2) - IC50?
1 to 5 nM

Record `COc1ccc(F)cc1[C@H](Cn1c(=O)n(C(C)(C)C(=O)NC(C)C)c(=O)c2c(C)c(-n3nccn3)sc21)OCCS(C)(=O)=O` : what is its IC50 with fungal (fACC2)?
0.3 to 1 nM

Item `COc1ccc(F)cc1[C@H](Cn1c(=O)n(C(C)(C)C(=O)N2CCCC2)c(=O)c2c(C)c(-n3nccn3)sc21)OCCN(C)C` with fungal (fACC2) - IC50?
1 to 5 nM

Lab request: please report IC50 under test system fungal (fACC2) for `CCNC(=O)C(C)(C)n1c(=O)c2c(C)c(-n3nccn3)sc2n(C[C@H](OC(C)=O)c2cc(F)ccc2OC)c1=O`
5 to 10 nM

Observed IC50 on fungal (fACC2) for `COc1ccccc1[C@H](Cn1c(=O)n(C(C)(C)C(=O)NC(C)C)c(=O)c2c(C)c(-n3nccn3)sc21)OCCC#N` , please.
0.3 to 1 nM

Param readout = IC50; param system = fungal (fACC2); param query = `COc1ccc(F)cc1[C@H](Cn1c(=O)n(C(C)(C)C(=O)N2CC=CC2)c(=O)c2c(C)c(-n3nccn3)sc21)OC1CCOCC1` ; response: value
1 to 5 nM
